Target: full-length beta-Catenin (Uniprot ID P35222) (Homo sapiens (Human)) (UniProt P35222)
Assay: fluorescence polarization competition; full-length beta-catenin, competitor 5FAM-TCF4(10-53) probe
pIC50: −log10 of the molar value. Starred links: 1 amine or outer side, 2 acyl side, 3 side chain; linkers in the order of their positions; H or OH if unused. Positions of bridges follow the written chain, without caps; N, C: chain ends. Non-standard residues stand in square brackets, D forms with d. Primed or numbered codes have the meaning given here. *: point of attachment. PyrS2″ = (S)-3-amino-1-((pent-4-en-1-yloxy)carbonyl)pyrrolidine-3-carboxylic acid (stapling residue), C=CCCCOC(=O)N1CC[C@@](N[*:1])(C(=O)[*:2])C1; B5(4) = 2,2-bis(4-pentenyl)glycine = 2-amino-2-(pent-4-en-1-yl)hept-6-enoic acid (stitching residue), C=CCCCC(CCCC=C)(N[*:1])C(=O)[*:2]; B5(5) = 2,2-bis(4-pentenyl)glycine, 2-amino-2-(pent-4-en-1-yl)hept-6-enoic acid (stitching residue), C=CCCCC(CCCC=C)(N[*:1])C(=O)[*:2]; B5(31) = 2-amino-2-(pent-4-en-1-yl)hept-6-enoic acid (bis-pentenylglycine, stitching residue), C=CCCCC(CCCC=C)(N[*:1])C(=O)[*:2]; PyrS2 = (S)-3-amino-1-((pent-4-en-1-yloxy)carbonyl)pyrrolidine-3-carboxylic acid, C=CCCCOC(=O)N1CC[C@@](N[*:1])(C(=O)[*:2])C1; MorphAsn = (S)-2-amino-4-morpholino-4-oxobutanoic acid, O=C(C[C@H](N[*:1])C(=O)[*:2])N1CCOCC1; RbGlu = 3-aminopentanedioic acid, R/S prefix not explained; CO2Ph = N-term phenyl hydrogen carbonate, O=C(Oc1ccccc1)*; Ala(1H-tetrazol-5-yl) = N[C@@H](Cc1nnn[nH]1)C(=O)O; Phe(3-COOH) = N[C@@H](Cc1cccc(C(=O)O)c1)C(=O)O; Phe(2-CF3) = N[C@@H](Cc1ccccc1C(F)(F)F)C(=O)O; Phe(2-Cl) = N[C@@H](Cc1ccccc1Cl)C(=O)O; Phe(2-Me) = Cc1ccccc1C[C@H](N)C(=O)O; Bta = N[C@@H](Cc1csc2ccccc12)C(=O)O; Lys(iPr) = CC(C)NCCCC[C@H](N)C(=O)O; αAllylPro = C=CC[C@@]1(C(=O)O)CCCN1; tBuAla = CC(C)(C)C[C@H](N)C(=O)O; 3Thi = N[C@@H](Cc1ccsc1)C(=O)O; Cha = N[C@@H](CC1CCCCC1)C(=O)O; S8 = C=CCCCCCC[C@](C)(N)C(=O)O; Nle = CCCC[C@H](N)C(=O)O; Aib = CC(C)(N)C(=O)O
Is pIC50 at least 7? Then Satisfied. If not, Not satisfied.

Kindly determine if pIC50 recorded for Ac-[αAllylPro]D[tBuAla][B5(4)]DLAAFL[PyrS2″][3Thi][Bta]Q-NH2 (staple 1-4, 4-11) [I-1444] is above or exactly 7.
Not satisfied

Kindly determine if pIC50 recorded for Ac-[αAllylPro]DI[B5(4)]DEAA[Nle]Q[S8]F[Bta]Q-NH2 (staple 1-4, 4-11) [I-728] is above or exactly 7.
Not satisfied

Kindly determine if pIC50 recorded for Ac-[αAllylPro]D[Cha][B5(4)]DTAAFT[PyrS2″][3Thi][Bta]Q-NH2 (staple 1-4, 4-11) [I-1173] is above or exactly 7.
Satisfied

Kindly determine if pIC50 recorded for CO2Ph-[αAllylPro]D[tBuAla][B5(31)]D[Phe(3-COOH)]AAFL[PyrS2″][Phe(2-Cl)][Bta]A-NH2 (staple 1-4, 4-11) [I-2327] is above or exactly 7.
Not satisfied

Kindly determine if pIC50 recorded for Ac-[αAllylPro]N[tBuAla][B5(5)]DQAAFH[PyrS2″]F[Bta]Q-NH2 (staple 1-4, 4-11) [I-2440] is above or exactly 7.
Not satisfied

Kindly determine if pIC50 recorded for Ac-[αAllylPro]D[tBuAla][B5(4)]DTAAFT[PyrS2″][3Thi][Bta]Q-NH2 (staple 1-4, 4-11) [I-1166] is above or exactly 7.
Satisfied

Kindly determine if pIC50 recorded for Ac-[αAllylPro]N[Cha][B5(5)]DQ[Lys(iPr)]AFL[PyrS2″]F[Bta][MorphAsn]-NH2 (staple 1-4, 4-11) [I-2426] is above or exactly 7.
Satisfied

Kindly determine if pIC50 recorded for Ac-[αAllylPro]DA[B5(4)]DEAA[Phe(2-Me)]N[S8]F[Bta]Q-NH2 (staple 1-4, 4-11) [I-457] is above or exactly 7.
Not satisfied

Kindly determine if pIC50 recorded for Ac-[αAllylPro]DA[B5(4)][Ala(1H-tetrazol-5-yl)]DAAFN[S8]F[Bta]Q-NH2 (staple 1-4, 4-11) [I-445] is above or exactly 7.
Not satisfied

Kindly determine if pIC50 recorded for CO2Ph-[αAllylPro]D[tBuAla][B5(31)]DDAAFQ[PyrS2″][3Thi][Bta]H-NH2 (staple 1-4, 4-11) [I-2326] is above or exactly 7.
Not satisfied

Kindly determine if pIC50 recorded for Ac-[αAllylPro]DI[B5(4)]DEAA[tBuAla]Q[S8]F[Bta]Q-NH2 (staple 1-4, 4-11) [I-727] is above or exactly 7.
Not satisfied

Kindly determine if pIC50 recorded for Ac-[αAllylPro]D[tBuAla][B5(5)]D[Phe(3-COOH)]AAFL[PyrS2][Phe(2-CF3)][Bta]QAA-NH2 (staple 1-4, 4-11) [I-2399] is above or exactly 7.
Satisfied

Kindly determine if pIC50 recorded for Ac-[αAllylPro]DI[B5(4)][RbGlu]EAAFQ[S8]F[Bta]Q-NH2 (staple 1-4, 4-11) [I-675] is above or exactly 7.
Not satisfied

Kindly determine if pIC50 recorded for Ac-[αAllylPro]D[tBuAla][B5(5)]NT[Aib]AFN[PyrS2″][3Thi][Bta]H-NH2 (staple 1-4, 4-11) [I-2414] is above or exactly 7.
Satisfied

Kindly determine if pIC50 recorded for Ac-[αAllylPro]DI[B5(4)]DEA[Nle]FQ[S8]F[Bta]Q-NH2 (staple 1-4, 4-11) [I-667] is above or exactly 7.
Not satisfied

Kindly determine if pIC50 recorded for Ac-[αAllylPro]N[Cha][B5(5)]DQNAFL[PyrS2″]F[Bta]K-NH2 (staple 1-4, 4-11) [I-2420] is above or exactly 7.
Not satisfied
